Tested on: U251 CNS
Test: NCI tumour cell line growth inhibition, 48 h
Each entry below carries its reported TGI.
Result Type: TGI

Compound | Target Entity | Observed Result
Clc1nc(Cl)c2ncn(Cc3ccccc3Cn3cnc4c(Cl)nc(Cl)nc43)c2n1 | U251 CNS | 4.63 µM
CC(=O)O[C@]12CCCCCC1C1(O)C(O)CCCCC12 (stereo partly drawn) | U251 CNS | > 100 µM
COc1cc2nc(-c3cccs3)nc(Cl)c2cc1OC | U251 CNS | > 100 µM
Cc1ccc(C)c(N2C(=O)C(=O)C(c3nc4ccccc4o3)/C(=N\NC(=O)c3ccccc3O)C2=O)c1 (stereo not drawn) | U251 CNS | > 100 µM
CCOC(=O)c1sc2nc(SC)nc(Nc3ccc4c(c3)OCCO4)c2c1N | U251 CNS | 21.2 µM
O=C1CC2CCN(C(=O)c3ccccc3)CC2CCN1 (stereo not drawn) | U251 CNS | > 100 µM
N[C@H](Cc1ccc2oc3cc(=O)c4ccccc4c-3nc2c1)C(=O)O | U251 CNS | > 100 µM
CC(=O)Nc1c(C(=N)C#N)ncn1CCO | U251 CNS | > 100 µM
CCCCC1Cc2cc(O)ccc2-c2nc3cc(O)ccc3n21 (stereo not drawn) (tested in a mixture with another compound) | U251 CNS | 27.5 µM
CC(=O)c1c(N=[N+]=[N-])c2cccc3c2n(c1=O)CCC3 | U251 CNS | 31.6 µM
COc1cc2c(cc1O)NC(=O)[C@@H]1CCCN1C2=O | U251 CNS | > 100 µM
COc1cccc(CC(=O)N2CCN(CCCc3ccccc3)CC2)c1 | U251 CNS | > 100 µM
O=C1C(Br)=CC2(C=C1Br)CCNC1=C2C(=O)c2ncccc2C1=O | U251 CNS | 5.6 µM
NC(CCc1ncc(C(=O)O)s1)C(=O)O (stereo not drawn) | U251 CNS | > 100 µM
C=CC1(CC[C@]2(c3ccc(OC)c(OC)c3)C=[N+]([O-])O[C@H](O[C@@H]3CCCC[C@H]3C(C)(C)c3ccccc3)C2)OCC(C)(C)CO1 | U251 CNS | > 50.5 µM
CNC(C)C(O)c1ccc2oc3cc(=O)c4ccccc4c-3nc2c1 (stereo not drawn) | U251 CNS | 22.4 µM
C[Si](C)(C)CN1C(=O)c2ccccc2C1(O)c1ccccc1 (stereo not drawn) | U251 CNS | > 100 µM
CN1CC=C(c2c(N)nc(N)[nH]c2=O)CC1 | U251 CNS | > 100 µM
O=c1[nH]nc(Cc2ccc(Cl)cc2)n1/N=C/c1cccs1 | U251 CNS | > 100 µM
CCOC(=O)C(NC(=O)c1ccccc1)(N1CCN(c2cc3c(cc2F)c(=O)c(C(=O)O)cn3C2CC2)CC1)C(F)(F)F (stereo not drawn) | U251 CNS | > 100 µM
COc1cccc(-c2nc(-c3cnccn3)n(C/C=C/c3ccccc3)n2)c1 | U251 CNS | > 10 µM
CC(=O)SC(C[N+](=O)[O-])c1ccc2c(c1)OCO2 (stereo not drawn) | U251 CNS | 13 µM
COC(=O)C1=C(OC)[C@H]2C#C/C=C\C#C[C@@H]3Nc4c(cc(O)c5c4C(=O)c4ccccc4C5=O)[C@]24O[C@@]34[C@H]1C | U251 CNS | < 0.0133 µM
CN1C(NNC(=O)c2cccnc2)=NS(=O)(=O)c2cc(Cl)ccc21 | U251 CNS | > 100 µM
Cc1ccc(NC(=O)C(=O)C2C(=O)NC(=O)NC2=O)cc1C | U251 CNS | > 100 µM
CCCCC1C=Cn2c(=O)oc3c(OC(C)C)c(C)c(O)c1c32 (stereo not drawn) | U251 CNS | 11 µM
COC(=O)[C@@H](NC(=O)N(Cc1ccccc1)C[C@H](CC(C)C)NC(=O)[C@@H](NC(=O)OC(C)(C)C)C(C)C)C(C)C | U251 CNS | > 100 µM
COc1ccc(/C=N/N=C(\N)NO)c(OC)c1C | U251 CNS | > 100 µM
COc1cc(OC)c2sc(-c3ccc(-n4cncc4-c4cc(OC)c(OC)c(OC)c4)cc3)nc2c1 | U251 CNS | > 100 µM
c1ccc2c(c1)OCCOCCOc1ccccc1OCCO2 | U251 CNS | > 100 µM
N/C(=N\S(=O)(=O)c1ccc(-c2ncccc2C(F)(F)F)s1)Nc1ccc(Cl)cc1 | U251 CNS | 25.8 µM
C1=NC(N(Cc2ccccc2)Cc2ccccc2)N(Cc2ccccc2)N1 (stereo not drawn) | U251 CNS | 32.1 µM
NCCN.O=C([O-])[O-].O=C([O-])[O-].[Co+3].[K+] | U251 CNS | > 100 µM
O=c1cc(NNc2cccc(Cl)c2)[nH]c(=O)[nH]1 | U251 CNS | > 100 µM
Cc1noc2c1-c1ccccc1C(c1ccc(Cl)cc1)=N[C@H]2CC(N)=O | U251 CNS | > 100 µM
CC1=NC(C)(COC(=O)C2(C)NC(C)(CO)CO2)COC1=O (stereo not drawn) | U251 CNS | > 100 µM
Nc1c(C(=O)Nc2ccccc2Cl)sc2nc3c(cc12)C(=O)CCC3 | U251 CNS | > 100 µM
C=CCCC1(C)CCCNC1=S (stereo not drawn) | U251 CNS | > 100 µM
CC(=O)OC(CCC1(C)OC1COc1ccc(CCNC(=O)C=C(C)C)cc1)C(C)(C)OC(C)=O (stereo not drawn) | U251 CNS | > 100 µM
CS(=O)(=O)N1CC(CCl)c2ccc(O)cc21 (stereo not drawn) | U251 CNS | 10.3 µM
O=C1c2ccccc2OCC12OC21C=CC(Cl)=CC1 (stereo not drawn) | U251 CNS | 44.4 µM
O=[N+]([O-])c1ccc(Sc2c3ccccc3nc3ccccc23)cn1 | U251 CNS | > 60.1 µM
Nc1nc(SCc2ccccc2Cl)c2[nH]cnc2n1 | U251 CNS | > 100 µM
